test details: Toxicity liver stage against HepG2, at 10uM
Format: cell-based
Parameters: test concentration 10 uM, cell line HepG2-A16-CD81EGFP
stated conditions: human, HepG2-A16-CD81EGFP cells; read-out: INHIBITION
attribute measured: cytotoxicity at 10 µM (%)
Answer with a number only, understood to be in %.

Please review the following examples before continuing.
# molecule, cytotoxicity at 10 µM (%)
measured = [
    ("CC1CN(CCc2ccccn2)CCN1c1ccc2nncn2n1 (configuration not stated)", -3.43),
    ("Cc1ccc(CN(C)C(=O)CN2CCc3ccccc3C2)o1", -6.9),
    ("O=C(c1ccc2[nH]ccc2c1)N1CCCCC1c1nc[nH]n1 (configuration not stated)", -9.04),
    ("Cc1cccc(CO[C@@H]2CC[C@H]3[C@H]2OCCN3Cc2nccs2)n1", 5.2),
    ("Cc1noc(O)c1Cc1ccc2ccccc2c1", -8.94),
]

Return reported cytotoxicity at 10 µM. Input molecule: `CN1CCN(C[C@@H]2CN(C3Cc4ccccc4C3)C[C@@H]2CO)CC1`
8.29

----------
# reported cytotoxicity at 10 µM; entries follow
test details: Toxicity liver stage against HepG2, at 10uM
Type: cell-based
Design: test concentration 10 uM, cell line HepG2-A16-CD81EGFP
stated conditions: human, HepG2-A16-CD81EGFP cells; read-out: INHIBITION
The answer is to be given in %; state only the numeric part.

In one line, give reported cytotoxicity at 10 µM of the entry `CC(C)OC(=O)[C@@H]1CCN(C(=O)c2ccccn2)[C@@H]1c1ccc(F)cc1` .
4.81

----------
test details: Toxicity liver stage against HepG2, at 10uM
Format: cell-based
Parameters: test concentration 10 uM, cell line HepG2-A16-CD81EGFP
stated conditions: human, HepG2-A16-CD81EGFP cells; read-out: INHIBITION
Recorded cytotoxicity at 10 µM by entry
Please reply with the bare figure in % and do not write the unit itself.

Some solved entries appear below for comparison.
# compound, unit symbol, result value
records = [
    ("COCCN1CCc2ncc(CN(C)C)n2CC1", "%", -0.0807),
    ("CC(C)(C)OC(=O)N1CCN(c2ccc(F)cc2)CC1C(=O)O (stereo unspecified)", "%", -1.73),
    ("COc1ccc(CN2CCC(C(N)=O)CC2)cc1SC(F)(F)F", "%", -20.3),
]

In one line, give reported cytotoxicity at 10 µM of the entry COCCN1CCC(NCc2c(F)cccc2F)C1 (stereo unspecified) .
-5.95

Give recorded cytotoxicity at 10 µM. `CC(=O)N1CCC(C(=O)Nc2nnc(C(F)(F)F)[nH]2)CC1`
-3.37

Input Cc1cnn(CC(C)NCc2csc(-c3cnn(C)c3)n2)c1 (stereo unspecified) , output reported cytotoxicity at 10 µM.
5.32

----------
Readings of cytotoxicity at 10 µM for the listed molecules
test details: Toxicity liver stage against HepG2, at 10uM
Assay type: cell-based
Parameters: test concentration 10 uM, cell line HepG2-A16-CD81EGFP
stated conditions: human, HepG2-A16-CD81EGFP cells; read-out: INHIBITION
Reply with a number, then the unit it belongs to.

Name the recorded cytotoxicity at 10 µM of the molecule listed here: `Cc1ccc2cccc(C(=O)NCCOCC3CC3)c2n1`
-20.3%

// Input: CC(=O)Nc1ccc(CNC2CC(=O)N(Cc3cccc(F)c3)C2)cc1 (configuration not stated) . Output its cytotoxicity at 10 µM only.
-6.98%

Please indicate cytotoxicity at 10 µM recorded for `N#Cc1cccn(CCOc2ccc(Cl)cc2)c1=O`
18.6%

Please report the measured cytotoxicity at 10 µM for `CC(=O)Nc1ncc(S(=O)(=O)Nc2ccccc2F)s1`
14.4%
